Hello, the source for this data is ChEMBL document CHEMBL1687769, in case you need it.

- PROTOCOL_SUMMARY: Cmin in febrile neutropenic patient with neurological disorder at 2 g administered as 30 mins infusion every 8 hrs measured after 4 days by HPLC analysis
- Type: ADME, organism-based
- EXPERIMENTAL_PARAMETERS: human, in vivo, iv, read-out: Cmin
READOUT_NAME: concentration at 4 days (ng/mL)
Write the number in ng/mL without appending the unit.

concentration at 4 days reported for this compound CO/N=C(\C(=O)N[C@@H]1C(=O)N2C(C(=O)[O-])=C(C[N+]3(C)CCCC3)CS[C@H]12)c1csc(N)n1 [CEFEPIME] : 28000

* * *

- PROTOCOL_SUMMARY: Cmin in febrile neutropenic patient with GFR of <40 ml/min at 2 g administered as 30 mins infusion every 8 hrs measured after 4 days by HPLC analysis
- Format: ADME, organism-based
- EXPERIMENTAL_PARAMETERS: human, in vivo, iv, read-out: Cmin
READOUT_NAME: concentration at 4 days (ng/mL)
Could you give me the number in ng/mL? Just the number is fine.

# concentration at 4 days (molecule: CO/N=C(\C(=O)N[C@@H]1C(=O)N2C(C(=O)[O-])=C(C[N+]3(C)CCCC3)CS[C@H]12)c1csc(N)n1 [CEFEPIME] ) is 11400
